# TGT: Amine oxidase [flavin-containing] A (Homo sapiens)
# Sequence (P21397 whole entry): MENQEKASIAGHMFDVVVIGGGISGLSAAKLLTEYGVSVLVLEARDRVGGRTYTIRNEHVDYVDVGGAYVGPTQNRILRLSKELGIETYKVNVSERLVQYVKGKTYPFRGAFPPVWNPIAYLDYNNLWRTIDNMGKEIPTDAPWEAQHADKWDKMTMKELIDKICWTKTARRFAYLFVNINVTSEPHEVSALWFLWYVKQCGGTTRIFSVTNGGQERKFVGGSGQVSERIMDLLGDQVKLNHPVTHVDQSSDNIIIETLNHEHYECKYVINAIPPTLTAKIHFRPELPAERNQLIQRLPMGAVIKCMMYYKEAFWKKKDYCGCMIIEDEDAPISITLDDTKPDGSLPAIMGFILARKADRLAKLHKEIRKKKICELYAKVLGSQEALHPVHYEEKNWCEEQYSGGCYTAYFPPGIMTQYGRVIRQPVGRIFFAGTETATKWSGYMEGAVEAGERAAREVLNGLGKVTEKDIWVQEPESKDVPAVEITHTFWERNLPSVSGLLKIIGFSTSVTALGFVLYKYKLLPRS
# METHOD_NOTES: Inhibition of recombinant human MAO-A expressed in baculovirus infected BTI insect cells using p-tyramine as substrate incubated for 30 mins by Amplex red reagent based fluorescence analysis
Listed here are molecules together with their documented pKi.
Lab note: report pKi as minus log10 of the concentration in molar units, number only.

- MOLECULE: "COc1ccc(C2CC(c3ccccc3)=NN2C(=O)Cn2c(=O)oc3ccccc32)cc1OC (centres undefined)"
  ASSAY_RESULT: 8.05
- MOLECULE: "COc1ccc(C2=NN(C(=O)Cn3c(=O)oc4ccc(C)cc43)C(c3ccccc3Cl)C2)cc1 (centres undefined)"
  ASSAY_RESULT: 7.74
- MOLECULE: "COc1ccc(C2=NN(C(=O)Cn3c(=O)oc4ccc(Cl)cc43)C(c3ccccc3)C2)cc1 (centres undefined)"
  ASSAY_RESULT: 8.40

The recorded pKi for entry COc1cccc(C2CC(c3ccc(C)cc3)=NN2C(=O)Cn2c(=O)oc3ccccc32)c1OC (centres undefined) equals 7.55

Query O=C(Cn1c(=O)oc2ccccc21)N/N=C(\C=C\c1ccccc1)c1ccccc1 yields pKi of 9.00

Item: COc1ccccc1C(/C=C/c1ccccc1)=N/NC(=O)Cn1c(=O)oc2ccc(C)cc21 | pKi: 7.92

The reported value for COc1ccccc1C1=NN(C(=O)Cn2c(=O)oc3ccc(Cl)cc32)C(c2ccccc2Cl)C1 (centres undefined) in terms of pKi is 7.30

The recorded pKi for entry Cc1ccc(C2CC(c3ccccc3)=NN2C(=O)Cn2c(=O)oc3ccc(Cl)cc32)cc1 (centres undefined) equals 7.40

COc1ccc(C2=NN(C(=O)Cn3c(=O)oc4ccc(Cl)cc43)C(c3ccccc3Cl)C2)cc1 (centres undefined) has a reported pKi of 7.19

pKi for COc1ccc(C2CC(c3ccccc3)=NN2C(=O)Cn2c(=O)oc3ccc(C)cc32)cc1OC (centres undefined) is 6.77

Value of measured pKi for the entry COc1ccc(C2=NN(C(=O)Cn3c(=O)oc4ccccc43)C(c3ccccc3Cl)C2)cc1 (centres undefined) : 9.00

Lab note: measured pKi of Cc1ccc(C2=NN(C(=O)Cn3c(=O)oc4ccc(Cl)cc43)C(c3ccccc3)C2)cc1 (centres undefined) was 7.70

pKi reading for COc1cccc(C2CC(c3ccc(C)cc3)=NN2C(=O)Cn2c(=O)oc3ccc(Cl)cc32)c1OC (centres undefined) : 6.29

Field pKi (entry COc1cccc(C2CC(c3ccccc3)=NN2C(=O)Cn2c(=O)oc3ccc(Cl)cc32)c1 (centres undefined) ) reads 6.01

The value of pKi measured for the molecule COc1ccc(C2CC(c3ccccc3)=NN2C(=O)Cn2c(=O)oc3ccc(Cl)cc32)cc1OC (centres undefined) turned out to be 5.52

Source listed as ChEMBL document CHEMBL4706681.
